Tested on: NCI-H226 lung
Assay: NCI-60 one-dose screen, 48 h (100 = growth as untreated, 0 = no growth, -100 = all killed)
Details: 10 µM unless noted
About 83,000 compounds went through this panel and 20% of them were active in at least one assay; those are over-represented in the sample as a whole. Activity calls are given as the source filed them. How the source made its calls: active means growth percent below 10; inactive means the rest.
List of growth values.

// below: answered compounds
COc1ccc(-n2cc(-c3ccc(Cl)c(Cl)c3)[nH]c2=O)cc1OC = 97.5% (inactive)
C=C(C)[C@@H]1CC[C@]2(C(=O)OCCOCCOCC[P+](c3ccccc3)(c3ccccc3)c3ccccc3)CC[C@]3(C)[C@H](CC[C@@H]4[C@@]5(C)CC[C@H](C)C(C)(C)[C@@H]5CC[C@]43C)[C@@H]12 = -70.9% (active)
NC(=O)c1ccc(C2C3=C(CCCC3=O)OC3=C2C(=O)c2ccccc2C3=O)cc1 (centres undefined) = 113% (inactive)
COc1ccc(NC(=O)c2sc3nc(C)c(C(C)=O)cc3c2N)cc1 = 95.9% (inactive)
NS(=O)(=O)c1ccc(C2C3=C(CCCC3=O)OC3=C2C(=O)c2ccccc2C3=O)cc1 (centres undefined) = -56.7% (active)

Entry CC(=O)c1c(OCC#N)ccc2c(C)cc(=O)oc12 ; assay system NCI-H226 lung; growth recorded at 112% (inactive)

Entry Nc1n[nH]c2cccc(C#Cc3cccc(NC(=O)c4cc(N5CCOCC5)cc(C(F)(F)F)c4)c3)c12 ; assay system NCI-H226 lung; growth recorded at 43.9% (inactive)

Entry COC(=O)/C=C1\SC(=Nc2cccc(Cl)c2)N(CCc2c[nH]c3ccccc23)C1=O ; assay system NCI-H226 lung; growth recorded at 101% (inactive)

Entry COc1ccc(/C=C(/C(=O)N2CCCC2)c2cc(OC)c(OC)c(OC)c2)cc1 ; assay system NCI-H226 lung; growth recorded at 69.2% (inactive)

----------
Tested on: HS 578T breast
Assay: NCI-60 one-dose screen, 48 h (100 = growth as untreated, 0 = no growth, -100 = all killed)
Details: 10 µM unless noted
The panel holds about 83,000 compounds, 20% with a hit somewhere; the sample as a whole holds those more often.
List of growth values.
Number only, in %; omit the unit.

CCN(CC)c1ccc2c(c1)Oc1nc(N)c(C#N)c(N)c1C2Sc1ccc(OC)cc1 (stereo not given) = 19.7
CCO/C=N/S(=O)(=O)c1cc2c(cc1Cl)NC=NS2(=O)=O = 101
COc1ccc(-c2[nH]c3ccccc3c2C=C(C#N)C#N)cc1 = 16.4
O=CN1N=C(c2ccc3c(c2)OCO3)CC1c1cccc(Nc2ccnc3cc(C(F)(F)F)ccc23)c1 (stereo not given) = 96.1
OCCNc1nc(NCCO)nc(Nc2ccc(C3=NN(c4cc(Cl)cc(Cl)c4)C(c4ccc(C(F)(F)F)cc4)C3)cc2)n1 (stereo not given) = 43.6
Cn1c2ccccc2c2c(OC(=O)c3ccccc3)c3c(nc21)-c1ccccc1C3 = 107
COc1ccc(OCC(=O)OC(C)C)cc1 = 100
O=c1[nH]nc(-c2ccccc2)c2sc(NC(=S)Nc3ccc(Cl)cc3)nc12 = 102
COc1ccc(C(=O)c2cc(OC)c(OC)c(OC)c2)cc1OC(=O)CCl = 48.9

Continue with the compound presented below.
The value of growth measured for the compound CN1CCN(/C=C2\CC(C(=O)NCc3ccc(Cl)cc3Cl)NC2=O)CC1 (stereo not given) turned out to be 103
